Assay: Cell Viability - LYMP2-005 (AID 967);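 also: cells exposed to compound for 24 h at 37 °C; plate controls were DMSO only for no effect and 92 µM tetraoctylammonium bromide control for full effect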
Settings: LYMP2-005 lymphoblastoid cell viability; series mostly up to 92.2 µM
Inconclusive results are not listed. Active and inactive are the calls of the source. Calls follow the shape of the dose curve; as a rule, active = well fitted cell-killing curve with a large enough effect; inconclusive = small, poorly fitted or top-dose-only effect, or effect the other way; inactive = no such curve, though single readings can be large or run the other way.
endpointName: outcome

| recordSmiles | assayResult |
| --- | --- |
| O=C(O)c1cc(=O)[nH]c(=O)[nH]1 | inactive |
| Cc1ccnc2c1NC(=O)c1cccnc1N2C1CC1 | inactive |
| C[C@]12C=CC(=O)C=C1CC[C@@H]1[C@@H]2C(=O)C[C@@]2(C)[C@H]1CC[C@]2(O)C(=O)CO | inactive |

====

Assay: qHTS Assay for Lipid Storage Modulators (AID 1519)
Conditions: Drosophila S3 cells, BODIPY lipid droplet/cell ratio, laser cytometry; measured here: cell count channel max response; cells loaded with oleic acid
Results filed as inconclusive are left out.
endpointName: max response (%)
Provide the reading as a plain figure in %.

| recordSmiles | valueUnit | assayResult |
| --- | --- | --- |
| O=C(N[C@H](CO)[C@H](O)c1ccc([N+](=O)[O-])cc1)C(Cl)Cl | % | -11.7 |
| Oc1c(Cl)cc(Cl)c2cccnc12 | % | -11.5 |
| CC(C)(C)NC(=O)[C@H]1CC[C@H]2[C@@H]3CC[C@H]4NC(=O)C=C[C@]4(C)[C@H]3CC[C@]12C | % | -43.7 |

Lab note: next compound to report on.
Could you please provide reported max response for CC(=O)[C@H]1CC[C@H]2[C@@H]3CCC4=CC(=O)CC[C@]4(C)[C@H]3CC[C@]12C ? Thanks!
-15.2
